- target desc: 5-HT2A receptor (Homo sapiens (Human), UniProt P28223)
- assay name: FLIPR Ca2+ flux functional assay at 5-HT2A (HEK293)
pEC50: −log10 of the molar value.
If the reported pEC50 equals or exceeds 8, assign 1 (yes). If not, assign 0 (no).

Completed entries (count: 8):
• COc1cc(C2CC2)c(OC)nc1CCN = 0 (no)
• CCc1cc(OC)c(CC(N)CC)nc1OC (centres unmarked) = 0 (no)
• CCCc1cc(OC)c(CC(N)CC)nc1OC (centres unmarked) = 0 (no)
• CCC(N)Cc1nc(OC)c(Cl)cc1OC (centres unmarked) = 0 (no)
• CCSc1cc(OC)c(CC(C)N)nc1OC (centres unmarked) = 1 (yes)
• COc1cc(Cl)c(OC)nc1CCN = 0 (no)
• COc1cc(CCCCC(F)(F)F)c(OC)nc1CCN = 0 (no)
• COc1cc(Br)c(OC)nc1CC(C)N (centres unmarked) = 1 (yes)

query: Threshold query (pEC50 >= 8) on CCCCCc1cc(OC)c(CCN)nc1OC
result: 0 (no)

query: Threshold query (pEC50 >= 8) on CCCc1cc(OC)c(CCN)nc1OC
result: 1 (yes)

query: Threshold query (pEC50 >= 8) on CCc1cc(OC)c(CCN)nc1OC
result: 0 (no)

query: Threshold query (pEC50 >= 8) on CCSc1cc(OC)c(CC(N)CC)nc1OC (centres unmarked)
result: 0 (no)

query: Threshold query (pEC50 >= 8) on CCSc1cc(OC)c(CCN)nc1OC
result: 1 (yes)

query: Threshold query (pEC50 >= 8) on COc1cc(C)c(OC)nc1CC(C)N (centres unmarked)
result: 0 (no)

query: Threshold query (pEC50 >= 8) on COc1cc(CCCCCC(F)(F)F)c(OC)nc1CCN
result: 0 (no)

query: Threshold query (pEC50 >= 8) on CCC(N)Cc1nc(OC)c(C)cc1OC (centres unmarked)
result: 0 (no)

query: Threshold query (pEC50 >= 8) on CCc1cc(OC)c(CC(C)N)nc1OC (centres unmarked)
result: 1 (yes)

query: Threshold query (pEC50 >= 8) on CCCCCCc1cc(OC)c(CCN)nc1OC
result: 0 (no)

query: Threshold query (pEC50 >= 8) on CCCCCc1cc(OC)c(CC(N)CC)nc1OC (centres unmarked)
result: 0 (no)

query: Threshold query (pEC50 >= 8) on COc1cc(CCCC(F)(F)F)c(OC)nc1CCN
result: 0 (no)
